Ref: patent US11179383B2

- ASSAYED_TARGET: α4β7 integrin (Homo sapiens, UniProt P13612+P26010)
- Construct: monitoring the capture of α4β7 integrin expressing cells on a recombinant MadCAM-1 extracellular domain-coated plate; endogenous in cells; host or cells: RPMI8866 cells
- Sequence (P13612 34-1032): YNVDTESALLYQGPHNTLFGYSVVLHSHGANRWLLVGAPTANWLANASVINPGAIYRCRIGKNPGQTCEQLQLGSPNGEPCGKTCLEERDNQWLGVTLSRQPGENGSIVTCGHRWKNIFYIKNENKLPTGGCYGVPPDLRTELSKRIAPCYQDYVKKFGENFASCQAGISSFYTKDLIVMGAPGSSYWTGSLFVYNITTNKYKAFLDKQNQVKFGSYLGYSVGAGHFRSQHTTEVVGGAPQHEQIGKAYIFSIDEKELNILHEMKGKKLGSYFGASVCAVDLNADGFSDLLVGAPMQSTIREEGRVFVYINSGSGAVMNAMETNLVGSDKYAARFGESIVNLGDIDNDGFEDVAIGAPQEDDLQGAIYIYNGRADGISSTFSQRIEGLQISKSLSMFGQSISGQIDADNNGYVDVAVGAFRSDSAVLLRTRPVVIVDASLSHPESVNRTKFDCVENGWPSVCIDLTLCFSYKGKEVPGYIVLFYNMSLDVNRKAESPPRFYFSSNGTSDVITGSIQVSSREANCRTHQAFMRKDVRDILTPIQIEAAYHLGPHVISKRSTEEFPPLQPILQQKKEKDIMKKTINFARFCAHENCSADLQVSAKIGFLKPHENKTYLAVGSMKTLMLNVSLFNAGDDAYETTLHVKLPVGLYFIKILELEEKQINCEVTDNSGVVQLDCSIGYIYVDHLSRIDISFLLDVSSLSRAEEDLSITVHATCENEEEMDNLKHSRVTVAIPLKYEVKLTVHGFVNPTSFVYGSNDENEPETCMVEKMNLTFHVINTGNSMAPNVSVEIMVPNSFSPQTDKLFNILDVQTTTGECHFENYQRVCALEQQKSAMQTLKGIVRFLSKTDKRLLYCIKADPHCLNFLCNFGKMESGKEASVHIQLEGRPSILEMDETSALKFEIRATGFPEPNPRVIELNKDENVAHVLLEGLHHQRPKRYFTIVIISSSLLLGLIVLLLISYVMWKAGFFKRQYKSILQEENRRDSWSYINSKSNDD
- Sequence (P26010 20-798): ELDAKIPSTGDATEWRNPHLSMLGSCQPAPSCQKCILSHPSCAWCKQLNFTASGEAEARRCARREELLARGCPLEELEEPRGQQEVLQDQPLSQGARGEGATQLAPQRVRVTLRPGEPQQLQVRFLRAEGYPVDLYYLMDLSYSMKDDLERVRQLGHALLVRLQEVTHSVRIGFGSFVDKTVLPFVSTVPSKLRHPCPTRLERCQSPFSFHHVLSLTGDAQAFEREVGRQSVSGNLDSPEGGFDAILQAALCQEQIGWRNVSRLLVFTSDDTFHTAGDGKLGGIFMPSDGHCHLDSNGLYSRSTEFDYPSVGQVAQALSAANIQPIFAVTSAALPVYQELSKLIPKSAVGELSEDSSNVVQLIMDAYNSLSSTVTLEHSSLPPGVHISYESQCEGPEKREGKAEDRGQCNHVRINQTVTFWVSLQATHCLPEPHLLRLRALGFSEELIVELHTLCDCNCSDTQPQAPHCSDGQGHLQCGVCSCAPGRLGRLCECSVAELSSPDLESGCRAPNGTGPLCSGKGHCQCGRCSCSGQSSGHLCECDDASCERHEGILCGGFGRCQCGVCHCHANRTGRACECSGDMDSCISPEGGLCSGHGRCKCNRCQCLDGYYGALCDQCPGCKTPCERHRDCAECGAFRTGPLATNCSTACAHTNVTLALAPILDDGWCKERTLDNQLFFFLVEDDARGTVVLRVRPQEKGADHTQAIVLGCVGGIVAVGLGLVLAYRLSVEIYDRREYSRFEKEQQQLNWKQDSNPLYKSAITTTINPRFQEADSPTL
- ASSAY_PROCEDURE: α4β7 Integrin Cell Capture Assay
- Format: cell-based
- MEASUREMENT_CONTEXT: capture of α4β7 integrin expressing RPMI8866 cells on recombinant MadCAM-1 extracellular domain-coated plate; DMEM+0.5% FBS+0.5 mM MnCl2; read-out: EC50 α4β7
The compounds listed here are annotated with their EC50.
Give the value in µM but do not write µM after it.

Example results:
COMPOUND	MEASURE_UNIT	MEAS_VALUE
CC[C@@H](Nc1cc(F)c(C(=O)N[C@@H](Cc2ccc(-c3c(C)n(C)c(=O)n(C)c3=O)c3cccnc23)C(=O)O)c(F)c1)C(F)(F)F (single isomer, unassigned) [Example 8]	µM	0.0008
O=C(N[C@@H](Cc1ccc(-c2nccnc2C(F)(F)F)c2cccnc12)C(=O)O)c1c(Cl)cccc1Cl [Example 15]	µM	0.085
COc1cc(F)c(F)cc1-c1ccc(C[C@H](NC(=O)c2c(Cl)cccc2Cl)C(=O)O)c2nccc(C)c12 (single isomer, unassigned) [Example 98]	µM	0.469
CC[C@@H](Nc1cc(F)c(C(=O)N[C@@H](Cc2ccc(-c3nccc(C)c3C(F)(F)F)c3ccccc23)C(=O)O)c(F)c1)C(F)(F)F [Example 123]	µM	0.0102
O=C(N[C@@H](Cc1ccc(-c2c(Cl)cc(F)cc2Cl)c2cccnc12)C(=O)O)c1c(F)cccc1F [Example 1]	µM	0.21
COc1cccc(OC)c1-c1ccc(C[C@@H](NC(=O)c2c(F)cc(NS(=O)(=O)c3ccc(-n4cncn4)cc3)cc2F)C(=O)O)c2ccncc12 (single isomer, unassigned) [Example 165]	µM	0.0378
CCOCc1cc(OC)c(-c2ccc(C[C@H](NC(=O)c3c(F)cccc3F)C(=O)O)c3ncccc23)c(OC)c1 [Example 78]	µM	0.0124
O=C(N[C@@H](Cc1ccc(-c2c(Cl)cc(F)cc2Cl)c2cccnc12)C(=O)O)c1c(Cl)cccc1Cl [Example 7]	µM	0.522
COc1cc(F)c(C)cc1-c1ccc(C[C@H](NC(=O)c2c(Cl)cccc2Cl)C(=O)O)c2ncccc12 [Example 56]	µM	0.0685
CCOCc1cc(OC)c(-c2ccc(C[C@H](NC(=O)c3c(F)cccc3F)C(=O)O)c3nccc(Cl)c23)c(OC)c1 [Example 93]	µM	0.0268

Q: What does the record list as EC50 for [2H]C([2H])([2H])Oc1cc(F)c(F)cc1-c1ccc(C[C@H](NC(=O)c2c(Cl)cccc2Cl)C(=O)O)c2ncccc12 [Example 55] ?
Ans: 0.0631

Q: Name the reported EC50 value associated with the compound O=C(N[C@@H](Cc1ccc(-c2ccc(F)cc2Cl)c2c(Cl)ccnc12)C(=O)O)c1c(F)cccc1F [Example 90]
Ans: 4.28

Q: Quick one: EC50 of Cc1ccc(-c2ccc(C[C@H](NC(=O)c3c(Cl)cccc3Cl)C(=O)O)c3ncccc23)c(=O)n1C [Example 33] ?
Ans: 0.0122
